# target_of_assay: UniProt:O42275
# Sequence (O42275 whole entry): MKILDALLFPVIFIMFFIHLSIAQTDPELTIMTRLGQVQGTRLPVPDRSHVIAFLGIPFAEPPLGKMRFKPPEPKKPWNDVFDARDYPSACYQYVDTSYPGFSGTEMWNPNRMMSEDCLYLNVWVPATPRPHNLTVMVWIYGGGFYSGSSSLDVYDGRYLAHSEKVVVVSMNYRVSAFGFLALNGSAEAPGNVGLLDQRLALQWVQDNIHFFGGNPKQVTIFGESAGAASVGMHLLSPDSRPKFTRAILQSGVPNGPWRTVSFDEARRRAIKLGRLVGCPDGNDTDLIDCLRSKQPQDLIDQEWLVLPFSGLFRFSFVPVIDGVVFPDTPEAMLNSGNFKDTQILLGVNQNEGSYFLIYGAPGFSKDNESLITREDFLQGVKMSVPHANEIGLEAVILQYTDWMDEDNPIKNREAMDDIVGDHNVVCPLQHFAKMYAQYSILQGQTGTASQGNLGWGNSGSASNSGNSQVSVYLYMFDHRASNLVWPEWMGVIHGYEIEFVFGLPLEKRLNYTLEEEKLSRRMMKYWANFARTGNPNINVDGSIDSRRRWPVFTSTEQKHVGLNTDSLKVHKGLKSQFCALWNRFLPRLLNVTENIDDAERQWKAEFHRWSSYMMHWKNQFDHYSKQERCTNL
Hi all, reminder that labels come from IC50, split as low (below 8 µM), intermediate (8 µM to below 30 µM), high (30 µM or more)

A selection of reference data follows.
| compound | answer_label |
| --- | --- |
| CCNCCc1cc(O)c(OC)c2c1ccc1cc(O)c(OC)cc12 | intermediate |
| CCC[N+]1(C)CCc2c(c(O)c(OC)c3c2ccc2cc(O)c(OC)cc23)C1 (centres undefined) | low |
| COc1cc2c(ccc3c4c(c(O)c(OC)c32)CN(Cc2ccccc2)CC4)cc1O | intermediate |
| CCCNCCc1cc(O)c(OC)c2c1ccc1cc(O)c(OC)cc12 | high |
| COc1cc2c(ccc3c4c(c(O)c(OC)c32)CN(C(C)C)CC4)cc1O | low |
| COc1cc2c(ccc3c(CCNC(C)C)cc(O)c(OC)c32)cc1O | high |
| COc1cc2c(ccc3c4c(c(O)c(OC)c32)CN(CC(C)C)CC4)cc1O | low |
| C=CCN1CCc2c(c(O)c(OC)c3c2ccc2cc(O)c(OC)cc23)C1 | intermediate |
| COc1cc2c(ccc3c4c(c(O)c(OC)c32)CN(C)CC4)cc1O [LITEBAMINE] | intermediate |
| CCCCNCCc1cc(O)c(OC)c2c1ccc1cc(O)c(OC)cc12 | high |

The entry to classify is COc1cc2c(ccc3c(CCNCC(C)C)cc(O)c(OC)c32)cc1O ; which class holds it?
high

Now consider CCCN1CCc2c(c(O)c(OC)c3c2ccc2cc(O)c(OC)cc23)C1 and answer again.
low

Now consider CCN1CCc2c(c(O)c(OC)c3c2ccc2cc(O)c(OC)cc23)C1 and answer again.
intermediate
